Assay: log P determination by HPLC on reversed-phase column (C 18), EEC Directive 79/831 Annex V.A8
Assay type: physicochemical
Settings: HPLC on reversed-phase column (C 18)
Recorded LogP by entry
When you answer, write just the number.

Cc1nc(C(F)(F)F)c(C(=O)N(Cc2c(Cl)cc(Cl)cc2Cl)C2CC2)s1 | 4.52
Cn1cc(C(=O)N(Cc2ccc(C(F)(F)F)cc2)C2CC2)c(C(F)F)n1 | 2.98
CC(c1ccc(Cl)cc1Cl)N(C(=O)c1cn(C)nc1C(F)F)C1CC1 (stereo not drawn) | 3.31
Cn1cc(C(=O)N(Cc2ccc(Cl)cc2Cl)C2CC2)c(I)n1 | 3.15
Cc1nn(C)c(F)c1C(=O)N(Cc1c(Cl)cc(Cl)cc1Cl)C1CC1 | 3.32
CCOc1nn(C)cc1C(=O)N(Cc1ccc(C(F)(F)F)cc1)C1CC1 | 2.92

IN: Recorded LogP for "Cc1nc(C(F)F)c(C(=O)N(Cc2ccc(C(F)(F)F)cc2)C2CC2)s1" , please?
OUT: 3.37

IN: Looking for the measured LogP of "CCn1nc(C)c(Br)c1C(=O)N(Cc1c(Cl)cc(Cl)cc1Cl)C1CC1" , can you help?
OUT: 2.4

IN: Looking for the measured LogP of Cc1nc(C(F)F)c(C(=O)N(C2CC2)C(C#N)c2c(Cl)cccc2Cl)s1 (stereo not drawn) , can you help?
OUT: 3.14

Hello, the source for this data is patent US8088927B2, in case you need it.
